- Test system: influenza A/H3N2/HK68x31 virus
- experiment-description: Antiviral efficacy assay, HK68x31
- Format: cell-based
measurement-label: IC50 (nM)
I only need the number, in nM, no unit after it.

# compound O=C(O)[C@H]1C2CCC(CC2)[C@@H]1Nc1nc(-c2c[nH]c3ncc(F)cc23)ncc1F [VX-787, reference compound] ; its IC50 = 7.05
